target: T1, BACE1 (Homo sapiens, UniProt P56817); assay: FRET peptide inhibition assay, BACE1 (M-2420); type: biochemical; details: IgG format; BACE-1, FRET peptide
T1 construct: human β-secretase 1 (BACE1, residue 46-457); made in house; host or cells: HEK293F (secreted, protein A purified)
T1 sequence (P56817 46-457): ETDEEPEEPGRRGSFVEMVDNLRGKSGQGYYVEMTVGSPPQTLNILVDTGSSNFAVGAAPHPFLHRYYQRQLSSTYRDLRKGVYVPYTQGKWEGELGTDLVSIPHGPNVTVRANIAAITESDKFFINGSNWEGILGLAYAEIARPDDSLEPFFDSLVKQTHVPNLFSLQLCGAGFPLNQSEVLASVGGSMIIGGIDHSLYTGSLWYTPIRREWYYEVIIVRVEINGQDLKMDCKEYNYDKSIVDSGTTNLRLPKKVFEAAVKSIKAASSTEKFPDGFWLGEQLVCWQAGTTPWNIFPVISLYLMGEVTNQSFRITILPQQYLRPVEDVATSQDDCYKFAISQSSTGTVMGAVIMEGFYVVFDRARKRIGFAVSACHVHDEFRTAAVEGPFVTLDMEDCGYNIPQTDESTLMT
readout_name: Inhibition Potency KI (associated IgG, in parentheses) (nM)
Dear colleague, please return just the value in nM, with no unit written.

Entry under review: Fab B1A4: anti-BACE-1 antibody clone; VL SEQ ID NO:33, VH SEQ ID NO:37, CDR-H3 SEQ ID NO:40 (antibody, V domains shown) VH: EVQLVESGGGLVQPGGSLRLSCAASGFNISYSSIHWVRQAPGKGLEWVAYISPSSSYTSYADSVKGRFTISADTSKNTAYLQMNSLRAEDTAVYYCARHYYVSVGSGIDYWGQGTLVTVSSAS VL: DIQMTQSPSSLSASVGDRVTITCRASQSVSSAVAWYQQKPGKAPKLLIYSASSLYSGVPSRFSGSRSGTDFTPTISSLQPEDFATYYCQQASASPYALITFGQGTKVEIKR . Reported Inhibition Potency KI (associated IgG, in parentheses)?
35
